Recorded measurements of logD, one per entry
Test: physchem
Conditions: n-octanol/phosphate buffer, pH 7.4
# output: bare number, no unit

Worked examples follow.
smiles_code=C[C@@](CCN1Cc2cc(C#CC#CC3(N)CC3)cn2C1=O)(C(=O)NO)S(C)(=O)=O measurement=0.7
smiles_code=C[C@@](CCN1Cc2cc(C#CC#CC3CN(C4COC4)C3)cn2C1=O)(C(=O)NO)S(C)(=O)=O measurement=0.5
smiles_code=CC(C)(O)CN1CC(C#CC#Cc2cc3n(c2)C(=O)N(CC[C@](C)(C(=O)NO)S(C)(=O)=O)C3)C1 measurement=0.7
smiles_code=CN(C)C1(C#CC#Cc2cc3n(c2)C(=O)N(CC[C@](C)(C(=O)NO)S(C)(=O)=O)C3)CC1 measurement=2.1
smiles_code=C[C@@](CCN1Cc2cc(C#CC#CC3CN(CCF)C3)cn2C1=O)(C(=O)NO)S(C)(=O)=O measurement=1
smiles_code=CN1CCC(C#CC#Cc2cc3n(c2)C(=O)N(CC[C@](C)(C(=O)NO)S(C)(=O)=O)C3)CC1 measurement=0.2

Reported logD, compound `C[C@@](CCN1Cc2cc(C#CC#CC3CN(CC(F)F)C3)cn2C1=O)(C(=O)NO)S(C)(=O)=O` : ____
1.4

Another compound to check: `C[C@@](CCN1Cc2cc(C#CC#C[C@@H]3C[C@@]3(F)CO)cn2C1=O)(C(=O)NO)S(C)(=O)=O`
0.9
